Below, each of the compounds is paired with its reported z-score value.
test: E. coli acrAB mutant growth effects, primary screen, E. coli filamentation inducers, strain DRC39, OD650, 48 h (AID 1179);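 also: screen aims at cell division blockers that make cells filament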; conditions: E. coli DRC39 delta-acrAB growth, higher = more signal, called active from +8 up or from −8 down
Reply with the value as a number alone.

Study these solved cases before continuing.
May I ask what z-score has been recorded for "CCc1cc2c(nc1CC)CCN(CCC(C)=NO[C@@H](C)c1cn([C@H](CO)Cc3ccccc3)nn1)C2" ? 0.67

What value of measured z-score is listed for "CCO[C@H](c1cc(OC)cc([N+](=O)[O-])c1OC)[C@H](C)C=CCC(=O)OC" ? 0.38

GET /values?readout=z-score&item= "CCN1C(=O)[C@@H]2[C@H]3C(=CC[C@@H]2C1=O)C1(OCCCO1)[C@H]1O[C@H]1[C@H]3O" -0.985

Consider the compound "CO[C@H]1COC(=O)CCC[C@@H](C)[C@H](OC)COC(=O)[C@@H]2CCCN2C(=O)CC=C[C@@H]1C" and give its measured z-score. -0.459

# input compound: CCOC(=O)[C@H](CC(C)C)NC(=O)CCC1CC(OC(=O)NCc2cccc3ccccc23)CC2(CCCC(COC(=O)NCCc3ccc(Cl)cc3)O2)O1 (stereo partly drawn) ; wanted: its z-score -0.214

Suppose we examine the compound "C#CCCCON=C1C[C@@H](O)[C@@H](O)[C@@H]2[C@@H]3C(=O)N(c4cccc(Oc5ccccc5)c4)C(=O)[C@@H]3CC[C@H]12" ; what z-score value has been reported? 0.401

I am curious: what z-score value has been reported for "CCCCc1nc2c(c3c1C[C@H](C)OC3)CN(CCOc1ccccc1)CC2" ? -0.908

Okay, next one:
Requested read-out: z-score. Entry: "COc1ccc(O[C@@H]2[C@H](O)CO[C@@H]2C=Cc2ccccc2)cc1" -1.93

---

Readings of composite z-score for the listed molecules
tested on: PRMT1 (protein arginine N-methyltransferase 1); test: PRMT1 binders on small-molecule microarrays, primary screen, biochemical, small-molecule microarray, 635 nm fluorescence (AID 1088); conditions: small-molecule microarray binding, higher = more signal;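 also: binding of Prmt1 protein to compounds spotted on small-molecule microarray slides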
Just the number, please, no unit after it.

Would you please look over these solved cases?
Name the recorded composite z-score for "CC[C@@H](c1ccccc1)n1c(=O)n2n(c1=O)[C@H]1[C@H](O)[C@@H]3O[C@@H]3C(=O)[C@H]1CC2" . 0.342

Entry "COC(=O)[C@@H]1CC[C@H](C)[C@@H](c2ccc(C)cc2)N1C(=O)c1ccc(C=NOCC[C@@H]2C=C[C@H](OC(C)=O)[C@@H](COC(C)=O)O2)cc1" has what composite z-score? 0.903

What value of composite z-score has been reported for the following molecule? CC1O[C@H]2C3=C(C(=O)[C@@H]4O[C@@H]4[C@H]3O)[C@@H]1C1[C@@H](C)OC=C3[C@H](O)C4O[C@@H]4C(=NOCc4ccccc4)[C@]312 (some centres undefined) -0.543

Others:
Could you share which composite z-score value was measured for COCCNC(=O)OCC1CCCC2(CC(OC(=O)NCc3ccc4c(c3)OCO4)CC(CCC(=O)N[C@@H](C)C(=O)OC)O2)O1 (some centres undefined) ? 1.52

---

test: fission yeast growth modulation, primary screen, strain 972, OD600, 24 h, no modulator (AID 1090);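 also: basal condition with compound alone and no growth modifier present; test concentration not given here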; details: S. pombe 972 growth, higher = more signal, called active from +8 up or from −8 down
Decide using z-score: a value greater than or equal to -0.6 is yes (1), a smaller one is no (0).

Solved cases (8 shown):
Could you verify whether the entry CCOC(=O)[C@H](CC(C)C)NC(=O)CCC1CC(OC(=O)NCCc2ccc(F)cc2)CC2(CCCC(COC(=O)NCC(c3ccccc3)c3ccccc3)O2)O1 (stereo partly drawn) shows z-score of no less than -0.6? yes (1)

Exam item: decide whether the reported z-score for "O=C1C[C@@H](O)[C@@H](O)[C@@H]2[C@@H]3C(=O)N(c4cccc(Oc5ccccc5)c4)C(=O)[C@@H]3CC[C@H]12" is at least -0.6. yes (1)

Could you verify whether the entry CCOC(=O)[C@H](CC(C)C)NC(=O)CCC1CC(OC(=O)NCc2cccc3ccccc23)CC2(CCCC(COC(=O)NCc3ccncc3)O2)O1 (stereo partly drawn) shows z-score of no less than -0.6? yes (1)

Could you please find out whether "CO[C@@H]1COC(=O)[C@@H](C)COC(=O)[C@@H](C)NC(=O)CC=C[C@@H]1C" has z-score that meets -0.6 or exceeds it? no (0)

z-score >= -0.6 for CCOC(=O)[C@H](CC(C)C)NC(=O)CCC1CC(OC(=O)NCCc2ccc(F)cc2)CC2(CCCC(COC(=O)NCCc3ccccc3OC)O2)O1 (stereo partly drawn) ? yes (1)

Assess whether reported z-score for "C#CCCCON=C1C[C@@H](O)[C@@H](O)[C@@H]2[C@@H]3C(=O)N(c4ccc(F)cc4F)C(=O)[C@@H]3CC[C@@H]12" sits at -0.6 or higher. yes (1)

Entry "COC(=O)CC=C[C@@H](C)[C@@H](C=NO[C@@H](C)c1cn([C@H](CO)Cc2ccccc2)nn1)NS(=O)(=O)c1ccc(C)cc1" : is its z-score no less than -0.6? no (0)

Confirm if z-score reported for the compound "CC(C)=CCCC(C)=CCON=C1C[C@@H](O)[C@@H](O)[C@@H]2[C@@H]3C(=O)N(c4ccc(F)cc4F)C(=O)[C@@H]3CC[C@H]12" is -0.6 or above. no (0)

Others:
In plain terms: is recorded z-score at least -0.6 for "O=C1[C@H]2[C@H]3[C@H](O)[C@H](O)CC(=NOC[C@@H](O)COCc4ccco4)[C@H]3CC[C@H]2C(=O)N1c1ccc(F)cc1F" ? no (0)

Hi team, for COc1ccc(O[C@H]2C=C[C@@H](c3ccccc3)O[C@@H]2COC(=O)CCC(C)=NOC(C)CN2CCCc3nc(C)c(C)cc32)cc1 (stereo partly drawn) , is the recorded z-score at or above -0.6? no (0)

Does CCOC(=O)[C@H](CC(C)C)NC(=O)CCC1CC(OC(=O)NCCc2ccc(F)cc2)CC2(CCCC(COC(=O)NCCC(C)C)O2)O1 (stereo partly drawn) have a reported z-score of at least -0.6? yes (1)

Could you please find out whether CCOC(=O)[C@H](CC(C)C)NC(=O)CCC1CC(OC(=O)NCc2ccc3c(c2)OCO3)CC2(CCCC(COC(=O)NCC3CCCCC3)O2)O1 (stereo partly drawn) has z-score that meets -0.6 or exceeds it? yes (1)

---

assay: cell viability in Huh7 cells, primary screen, cytotoxicity control for HCV replication inhibitor project, CellTiter-Glo luminescence, basal, 48 h (AID 1143); conditions: Huh7 HCV replicon, higher = more signal, called active from +8 up or from −8 down;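 also: Huh7 hepatoma cells carrying a hepatitis C replication reporter with no stimulus; test concentration not given here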
# z-score annotations
// no unit string in output, number only

Example results:
I would be grateful if you could share the reported z-score for COC(=O)[C@H](C)NC(=O)CCC1CC(OC(=O)NCc2ccc3c(c2)OCO3)CC2(CCCC(COC(=O)NCCc3ccccc3OC)O2)O1 (stereo partly specified) . -0.643

What does the data say about its z-score? Entry: "CO[C@@H]1C=CCC(=O)N2CCC[C@H]2C(=O)OC[C@@H](C)C(=O)OC[C@H]1C" -0.0949

Could you tell me which z-score is on file for "COc1cccc([C@H]2Oc3ccc(OC)cc3C(=NOC[C@@H](O)[C@H]3O[C@@H]4OC(C)(C)O[C@@H]4[C@H]3O)[C@@H]2O)c1" ? -2.83

What value of z-score has been recorded for this entry: Cc1cc2c(nc1C)CCCCN2CC(C)ON=C1[C@H]2CCn3c(=O)n(-c4ccccc4)c(=O)n3[C@H]2[C@H](O)[C@@H]2O[C@H]12 (stereo partly specified) -0.299

For the molecule shown here, "C#CCCCON=C1C[C@@H](O)[C@@H](O)[C@@H]2[C@@H]3C(=O)N(C(C)(C)C)C(=O)[C@@H]3CC[C@@H]12" , give the reported z-score. 0.536

***
Which value of z-score has been reported for CCOC(=O)[C@H](CC(C)C)NC(=O)CCC1CC(OC(=O)NCc2cccc3ccccc23)CC2(CCCC(COC(=O)NCc3ccncc3)O2)O1 (stereo partly specified) in the records? -0.905

Name the reported z-score value associated with the molecule "CC(C)(C)N1C(=O)[C@H]2[C@H]3[C@H](O)C=CC(=O)[C@@H]3CC[C@H]2C1=O" 0.536

---

assay: basal S. cerevisiae growth modulation, no modifier, primary screen, OD600, strain BY4716, 24 h, basal condition (AID 1173); settings: OD600, 24 h, higher = more signal, called active from +8 up or from −8 down
// label = condition met if z-score is not less than -0.4, otherwise condition not met

Determine whether this compound has z-score no lower than -0.4: "C[C@H]1COC(=O)[C@@H]2CCCN2C(=O)[C@@H](C)COC(=O)[C@H](Cc2ccccc2)NC1=O" condition met

Confirm if z-score reported for the compound C[C@H]1CC[C@H]2C(=O)OC(CO)CN2[C@@H]1c1ccc(Br)cc1 (stereo partly drawn) is -0.4 or above. condition not met

Reported z-score at or above -0.4? "CC(C)CCN1CCc2nc(COc3ccccc3)c3c(c2C1)CO[C@@H](C)C3" condition not met

hey, is z-score for this one >= -0.4? "CCOC(=O)NN=C1C[C@@H](O)[C@@H](O)[C@@H]2[C@@H]3C(=O)N(Cc4ccc5c(c4)OCO5)C(=O)[C@@H]3CC[C@H]12" condition met

Check this compound for z-score at or above -0.4: "COC(=O)[C@@H]1CC[C@H](C)[C@@H](c2ccc(C)cc2)N1C(=O)c1ccc(C=NO[C@H](C)c2cn([C@H](CO)Cc3ccccc3)nn2)cc1" condition met

// inclusive: z-score at least -0.4? input: "O=C1C2=CC[C@H]3C(=O)N(c4cccc(Oc5ccccc5)c4)C(=O)[C@H]3[C@H]2[C@H](O)[C@@H]2O[C@H]12" condition not met

Further cases:
Is z-score for "CCc1cc2c(nc1CC)CCN(CCC(C)=NOC[C@H]1O[C@H](c3ccccc3)C=C[C@@H]1Oc1ccc(OC)cc1)C2" at or above -0.4? condition not met
